- Test system: A498 renal
- ASSAY_METHOD_TEXT: NCI tumour cell line growth inhibition, 48 h
QUANTITY_MEASURED: TGI

# COMPOUND, TGI
rows = [
    ("CCN(CC)CCOc1ccc(/C=C2\\CC3C4CCC5=CC(=O)CC[C@]5(C)C4CC[C@]3(C)C2=O)cc1OC (stereo partly drawn)", "8.48 µM"),
]

# batch: return TGI for each of the 2 compounds below
1. CC(=O)N1CC2Nc3ccccc3C2CC1CO (stereo not drawn)
2. COC(OC)c1cccc2c1C1(O)CCC3(CC21)OCCCCO3 (stereo not drawn)

["> 100 µM", "> 100 µM"]

###

- System: SK-OV-3 ovarian
- ASSAY_METHOD_TEXT: NCI tumour cell line growth inhibition, 48 h
QUANTITY_MEASURED: TGI

Example compounds with recorded TGI:
# COMPOUND, TGI
records = [
    ("CN1CCC2(CC1)C(=O)N(N1CCCCCC1)C(=O)N2c1ccccc1", "> 100 µM"),
    ("COc1cc(CSc2nc3ccc(C)cc3c(=O)n2Cc2ccccc2)cc(OC)c1OC", "17.8 µM"),
    ("C=CC1CC12C(=O)C1OC2(C)C2C(=O)c3c(ccc4c3ccc3ccccc34)C(=O)C12 (stereo not given)", "> 100 µM"),
    ("COc1ccc(/C=C2\\CSC/C(=C\\c3ccc(OC)c(OC)c3OC)C2=O)c(OC)c1OC", "> 100 µM"),
    ("O=c1ccccc2cccc(O)c12", "> 100 µM"),
]

Batch request: TGI for each of the following compounds.
1. CCOc1ccc2c(c1)/C(=C(\C(Cl)=C(Cl)Cl)[N+](=O)[O-])N2
2. O=C1CCCC/C1=C/C=C/c1ccccc1
3. COc1ccc(C2SCC(=O)N2c2ccc(-c3ccc(-n4c(-c5ccccc5)nc5ccccc5c4=O)cc3)cc2)cc1 (stereo not given)
4. O=C1c2ccccc2C(=O)N1c1ccc(S(=O)(=O)Nc2ncccn2)cc1

> 100 µM
> 100 µM
> 100 µM
> 100 µM

For each entry beneath this line, provide reported TGI.
1. O=c1/c(=C/c2ccc(Cl)cc2Cl)sc2nc3ccccc3n12
2. CCC1CC2CN3CCc4c([nH]c5c(-c6c(OC)ccc7c8c([nH]c67)[C@]6(C(=O)OC)CC7CC(CC)C6N(CC8)C7)c(O)ccc45)[C@](C(=O)OC)(C2)C13 (stereo not given in full)
3. COc1cc(OC)c2c(c1OC)OCC(Cc1ccc(O)cc1)C2=O (stereo not given)
4. CCN(CC)CCOc1ccc(/C=C2\CC3C4CCC5=CC(=O)CC[C@]5(C)C4CC[C@]3(C)C2=O)cc1OC (stereo not given in full)
5. NNC(=O)c1c(Cl)c(Cl)c(Cl)c(Cl)c1-c1nc2ccccc2[nH]1

["> 100 µM", "68 µM", "> 25 µM", "8.46 µM", "59.2 µM"]

# return TGI for each item in the list
1. O=C1c2cc3ccccc3cc2C2(c3ccc(Cl)cc3)N[C@H]3CCCC[C@@H]3N12 (stereo not given in full)
2. C=C1CC(CCCl)(c2ccccc2)OC1=O (stereo not given)
3. COc1ccc(Cc2nc3cc(C(F)(F)F)ccc3n2CCCN(C)C)cc1
4. COC(CCP(=O)(c1ccccc1)c1ccccc1)(C(=O)c1ccccc1)c1ccccc1 (stereo not given)

["31.9 µM", "> 100 µM", "41.9 µM", "21.8 µM"]

Batch: TGI for all items listed.
1. O=[N+]([O-])c1ccccc1N=Nc1c(O)[nH]c2ccccc12
2. COc1cc(/C=C/C(C)=O)ccc1OP(=O)(O)O

1: > 53.7 µM; 2: > 100 µM

###

- Tested on: SNB-75 CNS
- ASSAY_METHOD_TEXT: NCI tumour cell line growth inhibition, 48 h
Would you kindly list TGI for each of these compounds?

# COMPOUND, OBSERVED_VALUE
measured = [
    ("O=C1c2ccccc2-c2nnc(-c3ccccc3)cc21", "> 10 µM"),
    ("CCc1c2c(nc3cc4c(cc13)OCO4)-c1cc3c(c(=O)n1C2)COC(=O)[C@@]3(CC)OC(=O)CN", "< 0.045 µM"),
    ("COc1ccc(C(O)CNC(=O)c2ccccc2)cc1 (stereo not drawn)", "> 100 µM"),
]

List the reported TGI of each compound below.
1. CCOc1ccccc1/C=C1\NC(=O)N(/C=C2\C(=O)Oc3ccccc3C2=O)C1=O
2. CC(=O)OC12c3ccccc3C1CCCCCC21OCCCO1 (stereo not drawn)
3. COc1ccc2c(c1)c(C1(c3cn(C)c4ccc(OC)cc34)C(=O)Nc3ccc(F)cc31)cn2C
4. C(=C\c1csnn1)/c1cccnc1
5. CCOc1ccc2c(c1)/C(=C(\C(Cl)=C(Cl)Cl)[N+](=O)[O-])N2
6. CC(C)(C)[Si](C)(C)OCCCC#CCO
7. COC(=O)NCCc1[nH]nc2c1C(=O)C=C(Nc1ccccc1)C2=O
8. Cn1c(=O)cc2c3c(c(NCCCO)ccc31)C(=O)c1ccccc1-2

1. > 100 µM
2. > 100 µM
3. > 100 µM
4. > 100 µM
5. > 100 µM
6. > 100 µM
7. > 100 µM
8. > 100 µM

Each compound below has a reported value. Please supply its TGI.
1. O=P(O)(O)C(CSc1ccccc1)P(=O)(O)O
2. Cc1csc2nc(-c3ccc([N+](=O)[O-])cc3)c(/C=N/N=C(N)N)n12
3. CC(NS(C)(=O)=O)c1ccccc1 (stereo not drawn)
4. Cn1c(CCC#N)nc2ccc(Br)cc2c1=O
5. O=C(CN1CCN(C(=O)OCc2ccccc2)CCN(CC(=O)N2CCCCC2)CCN(C(=O)OCc2ccccc2)CC1)N1CCCCC1
6. CC(C)C(C/C=C1/CC(CO)(COC(=O)CC(C(C)C)C(C)C)OC1=O)C(C)C (stereo not drawn)
7. O=C(COc1cccc(/C=C2\COc3ccccc3C2=O)c1)Nc1nccs1

1: > 100 µM; 2: 2.97 µM; 3: > 100 µM; 4: > 100 µM; 5: 16.5 µM; 6: 18.8 µM; 7: 24.6 µM

###

- System: HOP-62 NSCLC
- ASSAY_METHOD_TEXT: NCI tumour cell line growth inhibition, 48 h
QUANTITY_MEASURED: TGI

Record excerpt, results attached:
# MOLECULE, TGI
rows = [
    ("CC(C)(C)c1ccc([I+]c2ccc(C(C)(C)C)cc2)cc1", "3.71 µM"),
    ("O=C1c2ccccc2C(=O)N1c1ccc(S(=O)(=O)Nc2ncccn2)cc1", "> 100 µM"),
    ("O=C1c2ccccc2CC12Cc1cc3c(cc1C2=O)CCC3 (stereo not given)", "> 100 µM"),
    ("CC(=O)OCC1OC(n2c(N)c(C#N)c(-c3ccccc3)c(C#N)c2=S)C(OC(C)=O)C(OC(C)=O)C1OC(C)=O (stereo not given)", "45 µM"),
]

Please give TGI, item by item, for the list that follows.
1. O=C1c2ccccc2-c2nnc(-c3ccccc3)cc21
2. COc1cc2c(c(OC)c1OC)-c1[nH]ncc1CC2
3. NC1CC(=O)c2csc(Br)c21 (stereo not given)
4. CC(NS(C)(=O)=O)c1ccccc1 (stereo not given)

1: > 10 µM; 2: > 100 µM; 3: > 72 µM; 4: > 100 µM

Give TGI for each listed item.
1. O=P(O)(O)C(CSc1ccccc1)P(=O)(O)O
2. CO[C@@H]1[C@@H](OC2OC(C)C(OC3CC(C)(O)C(OC(=O)CC(C)C)C(C)O3)C(N(C)C)C2O)[C@@H](CC=O)C[C@@H](C)C(=O)/C=C/C2O[C@H]2C[C@@H](C)OC(=O)C[C@H]1OC(C)=O (stereo not given in full)

1: > 100 µM; 2: 37.8 µM

###

Hi there, I'd appreciate the recorded TGI for every entry that follows.
- Tested on: K-562 leukemia
- ASSAY_METHOD_TEXT: NCI tumour cell line growth inhibition, 48 h
Answers are plain numbers, in µM.

Give TGI for each listed item.
1. O=C1OC(c2ccc(O)c(Cl)c2)(c2ccc(O)c(Cl)c2)c2ccc(Br)c3cccc1c23 (tested in a mixture with another compound)
2. CN(C)CCn1c2ccccc2c2nc3cc4ccccc4cc3nc21
3. CCCCCCCCCCCCCCCC(=O)OCC(O)C1OC(=O)C(O)=C1O (configuration not stated)

[46.2, 10.9, 77.7]

###

- Tested on: DMS 273 small cell lung
- ASSAY_METHOD_TEXT: NCI tumour cell line growth inhibition, 48 h
QUANTITY_MEASURED: TGI

Take a look at these entries with their results.
# COMPOUND, EXPERIMENTAL_SYSTEM, QUANTITY_MEASURED, OBSERVED_VALUE
measured = [
    ("Cc1cc(NS(=O)(=O)c2ccc(NC(=O)c3cccc4c(N)c5ccccc5nc34)cc2)no1", "DMS 273 small cell lung", "TGI", "49 µM"),
    ("NC(=O)CCC(NCc1c2ccccc2[n+]([O-])c2ccccc12)C(=O)O (stereo unspecified)", "DMS 273 small cell lung", "TGI", "> 100 µM"),
    ("O=c1c2ccc3cccc4c(=O)cc(c5ccccc15)-c2c34", "DMS 273 small cell lung", "TGI", "> 100 µM"),
    ("Cc1ccc(C(=O)C(C)N)cc1 (stereo unspecified)", "DMS 273 small cell lung", "TGI", "> 100 µM"),
    ("CC(C)(C)[Si](C)(C)OCCCC#CCO", "DMS 273 small cell lung", "TGI", "> 100 µM"),
]

# input compound: O=C(OCCOCBr)c1ccccc1 ; wanted: its TGI
> 100 µM

Hey, just so you know, these numbers are from PubChem BioAssay (NCI).
